Test system: HL-60(TB) leukemia
assaySummary: NCI-60 one-dose screen, 48 h
experimentalContext: 10 µM unless noted
Compounds without any hit were thinned out: in the full panel of roughly 83,000, 20% have a hit. Calls of active or inactive are those of the source. Rule for the calls: active = growth percent below 10; inactive = the rest.
Permitted responses: active, inactive

Answer briefly: the call reported for COc1ccc(-c2cc(/C=C3\C(=O)Nc4cc(Cl)ccc43)[nH]n2)cc1 in this assay.
active

Fill in: this test's call for CC(O)c1cc[cH-]c1.[Fe+2].c1cc[cH-]c1 (stereo unspecified) is ___
inactive

Just curious, what result did O=C(CSc1nnc(-c2ccc(NC(=O)c3cccnc3)cc2)o1)Nc1cccc(Br)c1 get here?
inactive

Call for entry Clc1ccc(/C=C/c2nc(N3CCOCC3)c3nc(Cl)c(Cl)cc3n2)cc1 :
inactive

Assay outcome for Cc1cc(C)nc(SC2=C(Nc3ccc(O)cc3)C(=O)N(Cc3ccccc3)C2=O)n1 : what was it?
inactive

How did this test come out for CCOC(=O)c1ccc(N(CCC(=O)O)C(C)=O)cc1 ?
inactive

---

System: T-47D breast
assaySummary: NCI-60 one-dose screen, 48 h
experimentalContext: 10 µM unless noted
The panel holds about 83,000 compounds, 20% with a hit somewhere; the sample as a whole holds those more often. Activity calls are given as the source filed them. Rule for the calls: active = growth percent below 10; inactive = the rest.
Pick one: yes for active, no for inactive

For c1ccc(-c2ccc3ccccc3[o+]2)cc1 , which call appears in the assay record?
no

Field: outcome | Entry: ClCCN(CCCl)c1ccc(C=NCCc2c[nH]c3ccccc23)cc1
no

// return assay outcome for CC1(C)N=C(N)N=C(N)N1c1ccc(CCC(=O)Nc2cccc(S(=O)(=O)F)c2)cc1
no

Could you kindly confirm the outcome this assay logged for Nc1ncnc2c1c(C(=O)NO)cn2C1OC(CO)C(O)C1O (centres undefined) ?
yes

Recorded test outcome, item COc1cc[c]([Hg][Cl])cc1
yes

Record lookup: outcome of this test for COC(C)(C)CCC[C@H](C)C/C=C/C(C)=C/C(=O)OC(C)C ?
no

What classification did C/C(=N/OC(=O)N(C)C)c1cc(Cl)ccc1Cl end up with in this test?
no

For this molecule, state the assay outcome: C/C(=N/OC(=O)N(C)C)c1ccc(Cl)cc1Cl
no

Kindly provide the recorded test outcome for the following molecule: CCOc1cc(C=C(C#N)C#N)cc(Br)c1O
no

---

What growth was measured for each of the following?
Test system: HL-60(TB) leukemia
assaySummary: NCI-60 one-dose screen, 48 h (100 = growth as untreated, 0 = no growth, -100 = all killed)
experimentalContext: 10 µM unless noted
Compounds without any hit were thinned out: in the full panel of roughly 83,000, 20% have a hit. The source made the active and inactive calls. Rule for the calls: active = growth percent below 10; inactive = the rest.

What value of growth has been reported for the following molecule? O=C1CC[C@@H]2CCCC[C@@H]2C1
110% (inactive)

Please give the measured growth for this molecule: N#C/C(=C\c1ccccn1)c1nc2cc(Cl)ccc2s1
52% (inactive)

Entry CCOC(=O)NC(C)C has what growth?
68% (inactive)

I have this molecule here, O=C(Nc1nc(-c2ccccc2Cl)cs1)c1cc(-c2ccc(Br)cc2)nc2ccccc12 , and I need its recorded growth.
37.2% (inactive)

For CC1(C)OC2=C(CC1Br)C(=O)C(=O)c1ccccc12 (stereo not given) , what is its reported growth?
-8.14% (active)

So what's the measured growth for this one? CCN(Cc1ccccc1)c1ccc(C=O)cc1
85.2% (inactive)

What growth value was documented for this molecule, CSCCCNC(=O)c1ccc2c(c1)/C(=C/c1[nH]c(C)cc1C)C(=O)N2 ?
46.1% (inactive)

Given the molecule CS(=O)(=O)c1nccc(-c2c(-c3cccc(OCCN4CCOCC4)c3)nc3sccn23)n1 , what is its reported growth?
66.4% (inactive)

Sample COc1ccc(C(=O)c2sc3nc4c(c(C(F)(F)F)c3c2N)CN(C(C)=O)CC4)cc1OC — what was its growth?
98.7% (inactive)

Look up growth for this molecule: CCCCCCCCCCCCCCCCCCOc1ccc(CC(=O)OCC[N+]2(C)CCCCC2)cc1
83.4% (inactive)

What does the record list as growth for CN1CCN(Cc2ccc(NC(=O)c3[nH]ncc3Nc3ncnc4c3CCC4)cc2)CC1 ?
-22.1% (active)

Param item = COc1nc2c(c(=O)n1C)CN(c1ccccc1)C(=O)CN2C ; retrieve measured growth.
93% [100 µM] (inactive)

Param item = Cc1ccc(N)cc1[As]=[As]c1cc(N)ccc1C (stereo not given) ; retrieve measured growth.
-43.9% (active)

Suppose we examine the molecule CCOC(=O)C1=C(C)NC(SCc2nnc(-c3ccc(Cl)cc3)o2)=NC1c1ccc(Cl)cc1Cl (stereo not given) ; what growth value has been reported?
-6.39% (active)

Recorded growth for CSc1ccccc1C#C/C=C\C#Cc1ccccc1N1CCCCC1=O , please?
107% (inactive)

Would you mind telling me what growth value was observed for CCOc1cccc(/C=N/NC(=O)Cc2ccc(Nc3ccnc(C(F)(F)F)c3)cc2)c1O ?
73.1% (inactive)

Fill blank: measured growth of the molecule CC1OC(n2c3ccccc3c3c4c(c5c6ccccc6[nH]c5c32)C(=O)N(CCN2CCCC2)C4=O)CC(O)C1O (stereo not given) is ____.
44.2% (inactive)

Quick check: growth of COc1cc(C=C2C(=O)N(C)C(=O)N(C)C2=O)cc(CN2CCCCC2)c1O ?
96.3% (inactive)

Consider the molecule shown here: O=NN(CCCl)C(=O)NCc1ccc(-c2ccc(CNC(=O)N(CCCl)N=O)cc2)cc1 What is its recorded growth?
88.6% (inactive)

Name the recorded growth for COc1cc(/C=C/C(=O)c2cc(OC)c(OC)c(OC)c2)ccc1Oc1nc2c(c(=O)n(C)c(=O)n2C)n1C .
-13.1% (active)

Requested field: growth. Item: Cc1ccc2nc(CN(CCN(Cc3nc4ccc(C)cc4[nH]3)Cc3nc4ccc(C)cc4[nH]3)Cc3nc4ccc(C)cc4[nH]3)[nH]c2c1
-67.7% (active)

// lookup growth for C[C@]12O[C@H]1[C@H](O)c1c(cc(O)c3c1C(=O)c1cccc(O)c1-3)C2=O
100% (inactive)

Give its growth value. Item: O=C(N/N=C/c1c(Cl)cccc1Cl)c1cccc(Nc2ccnc(C(F)(F)F)c2)c1
98.3% (inactive)

GET /values?readout=growth&item= Cc1cc(O)c(=O)cc2c1C[C@H]1CC(C)(C)/C=C/C[C@]3(C)Oc4cc(=O)c(O)cc(C)c4C[C@H]3C[C@H](O)[C@@]1(C)O2
-19.8% (active)

What value of measured growth is listed for CN(C)CCN=c1nc2c(c(N)n1-c1ccccc1)c(=S)n(-c1ccccc1)c(=S)n2-c1ccccc1 ?
36.6% (inactive)

Name the recorded growth for S=c1[nH]nc2ccccn12 .
59.3% (inactive)

Sample CC(C)CCNCC(O)Cn1c2ccccc2c2ccccc21 (stereo not given) — what was its growth?
-14.8% (active)

I am curious: what growth value has been reported for CC(C)c1ccc(Cc2cnc(NC(=O)c3cc(Br)cs3)s2)cc1 ?
-24% (active)

I have this molecule here, CC(=O)N(C(C)=O)c1ccc(C)cc1 , and I need its recorded growth.
92.9% (inactive)

I have this molecule here, COc1cc(-c2cc3ncccc3c3nc(OCCN(C)C)c4cccnc4c23)cc(OC)c1OC , and I need its recorded growth.
36.9% (inactive)

What does the data say about its growth? Entry: COc1ccc(N2CCC(=S)NC2=S)cc1
99% (inactive)

Which measured growth value corresponds to O=C1c2cc3c(cc2-c2c1c1ccc(F)cc1c(=O)n2C[C@H](O)[C@H](O)[C@H](O)CO)OCO3 ?
-14.8% (active)

Which growth value belongs to O=c1c(/C=C/c2c(O)ccc3ccccc23)nnc2sc(-c3cccc([N+](=O)[O-])c3)nn12 ?
11.2% (inactive)

Query: growth; subject: C#C[C@]1(O)CC[C@H]2[C@@H]3CC[C@H]4CC(F)(F)CC[C@]4(C)[C@H]3CC[C@@]21C
107% (inactive)

If you can, please state the reported growth value of COc1cc(/C=C2/C=C(c3ccc(C(C)(C)C)cc3)N(CCc3ccc(S(N)(=O)=O)cc3)C2=O)cc(OC)c1OC .
20.5% (inactive)

Tell me the measured growth of C=C1CC2(OC1=O)C(=O)N(CCCCCCCN1C(=O)C3(CC(=C)C(=O)O3)c3ccccc31)c1ccccc12 (stereo not given) , please.
11.7% (inactive)

Query (molecule): CCOc1ccccc1NC(=O)CCC(=O)OC ; field requested: growth
78.7% (inactive)

# lookup: growth of COC1=C(OC)C(=O)C(SC/C=C(\C)CCCC(C)CCCC(C)CCCC(C)C)=CC1=O (stereo not given)
-36.3% (active)

What measured growth goes with COc1ccc(-c2cc(-c3cccc(Cl)c3)c(C#N)c(=O)[nH]2)c(OC)c1 ?
95.6% (inactive)

State the recorded growth for this entry: CN1CCN(C(=O)C(C)(C)c2ccc(C(=O)Nc3cn4cc(-c5ccncc5)ccc4n3)cc2)CC1
7.51% (active)
